Numbers sourced from ChEMBL document CHEMBL1909046.

experiment: DRUGMATRIX: GABAA, Muscimol, Central radioligand binding (ligand: [3H] Muscimol); type: cell membranes, Rattus norvegicus, Wistar, Brain, Membrane; settings: Not Active = under 50% inhibition at 10 µM
recordedEndpoint: IC50

Cn1c(=O)c2nc[nH]c2n(C)c1=O.O :: Not Active
Clc1ccccc1CN1CCc2sccc2C1 :: Not Active
CC1(C)S[C@@H]2[C@H](NC(=O)[C@H](N)c3ccccc3)C(=O)N2[C@H]1C(=O)O :: Not Active
Oc1c(Cl)cc(Cl)c(Cl)c1Cc1c(O)c(Cl)cc(Cl)c1Cl :: Not Active
Oc1cccc(O)c1O :: Not Active
CC[C@H]1CN2CCc3cc(OC)c(OC)cc3[C@@H]2C[C@@H]1C[C@H]1NCCc2cc(OC)c(OC)cc21 :: Not Active

Reported IC50 for CC(C)Cc1ccc([C@@H](C)C(=O)O)cc1 [(R)-IBUPROPHEN] was Not Active

Reported IC50 for "CC(=O)[C@H]1[C@H](C#N)C[C@H]2[C@@H]3CC=C4C[C@@H](O)CC[C@]4(C)[C@H]3CC[C@@]21C" was Not Active

Reported IC50 for "COc1ccc2c3c1O[C@H]1C[C@@H](O)C=C[C@@]31CCN(C)C2" was Not Active

Reported IC50 for "COC1=C(OC)C(=O)C(CCCCCCCCCCO)=C(C)C1=O" was Not Active

====

target: 5-hydroxytryptamine receptor 1A (Rattus norvegicus, UniProt P19327); assay type: cell membranes, CHO-K1, Membrane; settings: cho-k1; note: in other assays of this panel Not Active means under 50% inhibition at 10 µM
Sequence (P19327 whole entry): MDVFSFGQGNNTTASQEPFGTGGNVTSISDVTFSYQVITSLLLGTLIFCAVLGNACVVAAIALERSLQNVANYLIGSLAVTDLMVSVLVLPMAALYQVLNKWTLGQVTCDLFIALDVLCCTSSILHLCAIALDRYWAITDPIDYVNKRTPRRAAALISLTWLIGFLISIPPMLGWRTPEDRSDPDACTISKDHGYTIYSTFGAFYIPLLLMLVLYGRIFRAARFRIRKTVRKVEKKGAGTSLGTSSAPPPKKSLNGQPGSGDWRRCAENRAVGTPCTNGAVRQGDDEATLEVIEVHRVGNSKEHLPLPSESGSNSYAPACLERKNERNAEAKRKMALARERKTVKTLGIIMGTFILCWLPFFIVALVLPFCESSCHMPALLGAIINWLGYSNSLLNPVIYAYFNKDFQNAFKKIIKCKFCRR
recordedEndpoint: IC50

Record excerpt, results attached:
CCN(CC)CCOCCC1=CCC2CC1C2(C)C (configuration not stated) :: Not Active
Cc1cccc(C)c1OCC(C)N (configuration not stated) :: Not Active
Cn1c(=O)c2[nH]cnc2n(C)c1=O.Cn1c(=O)c2[nH]cnc2n(C)c1=O.NCCN :: Not Active
C[C@H]1O[C@@H](n2cc(F)c(=O)[nH]c2=O)[C@H](O)[C@@H]1O :: Not Active
O=C(Nc1ccc(Br)cc1)c1cc(Br)cc(Br)c1O :: Not Active
COc1ccc2[nH]cc(CCNC(C)=O)c2c1 :: Not Active

Reported IC50 for "C[C@@H]1C[C@H]2[C@@H]3CCC4=CC(=O)C=C[C@]4(C)[C@@]3(F)[C@@H](O)C[C@]2(C)[C@H]1C(=O)CO" was Not Active

Reported IC50 for "CC(C)NNC(=O)c1ccncc1" was Not Active

Reported IC50 for "O=C(O)c1cccnc1Nc1cccc(C(F)(F)F)c1" was Not Active

Reported IC50 for COC(=O)Nc1nc2ccc([S+]([O-])c3ccccc3)cc2[nH]1 (configuration not stated) was Not Active

Reported IC50 for COc1ccc2cc3[n+](cc2c1OC)CCc1cc2c(cc1-3)OCO2.[Cl-] [BERBERINE CHLORIDE] was Not Active

Reported IC50 for "COc1ccc(C(=O)N2CCCC2=O)cc1" was Not Active

Reported IC50 for COc1cc2nc(N3CCN(C(=O)C4CCCO4)CC3)nc(N)c2cc1OC (configuration not stated) was Not Active

Reported IC50 for "CC(=O)O[C@H]1C(=O)[C@@]2(C)[C@H]([C@H](OC(=O)c3ccccc3)[C@]3(O)C[C@H](OC(=O)[C@H](O)[C@@H](NC(=O)c4ccccc4)c4ccccc4)C(C)=C1C3(C)C)[C@]1(OC(C)=O)CO[C@@H]1C[C@@H]2O" was Not Active

Reported IC50 for C[n+]1ccccc1/C=N/O.[Cl-] [PRALIDOXIME CHLORIDE] was Not Active

Reported IC50 for "O=C(N/N=C/c1ccc([N+](=O)[O-])o1)c1cc([N+](=O)[O-])cc([N+](=O)[O-])c1O" was Not Active

Reported IC50 for Cc1c(OCC(F)(F)F)ccnc1C[S+]([O-])c1nc2ccccc2[nH]1 (configuration not stated) was Not Active

Reported IC50 for COC(=O)CCc1ccc(OCC(O)CNC(C)C)cc1 (configuration not stated) was Not Active

Reported IC50 for "Cc1ccc(NC(=O)c2ccc(CN3CCN(C)CC3)cc2)cc1Nc1nccc(-c2cccnc2)n1" was Not Active

Reported IC50 for CN1[C@@H]2CC[C@H]1C[C@@H](OC(=O)C(CO)c1ccccc1)C2 (some centres not stated) was Not Active

Reported IC50 for CNC1(c2ccccc2Cl)CCCCC1=O (configuration not stated) was Not Active

Reported IC50 for "O=C1CN=C(c2ccccc2Cl)c2cc([N+](=O)[O-])ccc2N1" was Not Active

====

assay: DRUGMATRIX: Potassium Channel [KATP] radioligand binding (ligand: [3H] Glyburide); type: cell membranes, Membrane; details: hit-t15; Not Active = under 50% inhibition at 10 µM
recordedEndpoint: IC50

GENTAMICIN :: Not Active
SODIUM ORTHOVANAD :: Not Active
MANGANESE CHLORIDE ANHYDROUS :: Not Active
AURANOFIN :: Not Active

Reported IC50 for "NYSTATIN" was Not Active

Reported IC50 for "GRAMICIDIN" was Not Active

Reported IC50 for GADOPENTETATE DIMEGLUMINE was Not Active

====

molecular target: Prostaglandin G/H synthase 1 (Homo sapiens); assay: biochemical; type: tissue-based, Platelet; settings: read-out: IC50; note: in other assays of this panel Not Active means under 50% inhibition at 10 µM;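 note: inhibition of COX-1 enzyme activity, with arachidonic acid supplied as substrate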
Sequence (P23219 whole entry): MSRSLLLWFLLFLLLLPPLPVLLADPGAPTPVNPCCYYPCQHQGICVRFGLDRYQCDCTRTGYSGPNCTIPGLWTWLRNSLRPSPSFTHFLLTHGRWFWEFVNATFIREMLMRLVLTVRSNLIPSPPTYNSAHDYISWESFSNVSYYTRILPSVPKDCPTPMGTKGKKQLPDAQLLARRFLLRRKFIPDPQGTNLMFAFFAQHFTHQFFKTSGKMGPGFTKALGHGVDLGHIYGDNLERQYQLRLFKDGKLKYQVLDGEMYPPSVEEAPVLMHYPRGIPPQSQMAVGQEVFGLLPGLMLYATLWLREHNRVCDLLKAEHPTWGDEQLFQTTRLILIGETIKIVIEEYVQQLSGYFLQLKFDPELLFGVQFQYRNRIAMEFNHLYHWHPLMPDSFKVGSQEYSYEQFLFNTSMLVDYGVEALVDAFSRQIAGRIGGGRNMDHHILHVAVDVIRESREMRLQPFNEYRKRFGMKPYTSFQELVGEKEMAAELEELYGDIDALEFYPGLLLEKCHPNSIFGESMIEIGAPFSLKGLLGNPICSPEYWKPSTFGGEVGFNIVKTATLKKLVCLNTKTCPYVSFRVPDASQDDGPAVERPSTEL
Mark 1.0 for IC50 under 300 nM, 0.0 if at or over.

Hi there! Is IC50 for "CCN(CC)CCOc1ccc(/C(=C(/Cl)c2ccccc2)c2ccccc2)cc1" below 300 nM, do you know? 0.0

Hi there! Is IC50 for "CC(C)c1cccc(C(C)C)c1O" below 300 nM, do you know? 0.0

Hi there! Is IC50 for CC(C(=O)O)c1cccc(Oc2ccccc2)c1 (stereo not given) below 300 nM, do you know? 1.0

Hi there! Is IC50 for "O=C(Nc1ccc(Br)cc1)c1cc(Br)cc(Br)c1O" below 300 nM, do you know? 0.0

Hi there! Is IC50 for "NC(=O)N1C(=O)/C(=C(\O)c2cccs2)c2cc(Cl)ccc21" below 300 nM, do you know? 1.0

====

molecular target: Thromboxane-A synthase (Homo sapiens); experiment: biochemical; format: tissue-based, Platelet; settings: platelet;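 note: enzyme inhibition assay with PGH2 supplied as substrate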; note: in other assays of this panel Not Active means under 50% inhibition at 10 µM
Sequence (P24557 whole entry): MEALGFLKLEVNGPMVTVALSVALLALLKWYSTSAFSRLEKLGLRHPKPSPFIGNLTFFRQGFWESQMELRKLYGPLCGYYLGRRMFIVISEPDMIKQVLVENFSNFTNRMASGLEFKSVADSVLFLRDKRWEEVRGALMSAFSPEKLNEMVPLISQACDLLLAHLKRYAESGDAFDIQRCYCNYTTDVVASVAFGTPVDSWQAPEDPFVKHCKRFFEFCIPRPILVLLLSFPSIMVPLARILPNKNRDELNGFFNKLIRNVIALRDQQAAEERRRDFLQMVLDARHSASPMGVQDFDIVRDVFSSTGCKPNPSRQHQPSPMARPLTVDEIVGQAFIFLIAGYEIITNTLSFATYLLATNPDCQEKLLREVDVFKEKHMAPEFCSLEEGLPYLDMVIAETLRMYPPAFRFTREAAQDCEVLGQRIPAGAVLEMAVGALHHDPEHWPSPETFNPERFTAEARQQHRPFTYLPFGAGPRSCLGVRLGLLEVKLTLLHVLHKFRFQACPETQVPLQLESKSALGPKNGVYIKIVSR
recordedEndpoint: IC50

Record excerpt, results attached:
NYSTATIN :: Not Active
SODIUM ORTHOVANAD :: Not Active
MANGANESE CHLORIDE ANHYDROUS :: Not Active
GENTAMICIN :: Not Active
GADOPENTETATE DIMEGLUMINE :: Not Active

Lab note: next substance to report on.
Reported IC50 for "AURANOFIN" was Not Active

====

target: Mitogen-activated protein kinase 3 (Homo sapiens); experiment: DRUGMATRIX: Protein Serine/Threonine Kinase, ERK1 enzyme inhibition (substrate: Myelin Basic Protein); parameters: species or system Escherichia coli; conditions: Not Active = under 50% inhibition at 10 µM; read-out: IC50
Sequence (P27361 whole entry): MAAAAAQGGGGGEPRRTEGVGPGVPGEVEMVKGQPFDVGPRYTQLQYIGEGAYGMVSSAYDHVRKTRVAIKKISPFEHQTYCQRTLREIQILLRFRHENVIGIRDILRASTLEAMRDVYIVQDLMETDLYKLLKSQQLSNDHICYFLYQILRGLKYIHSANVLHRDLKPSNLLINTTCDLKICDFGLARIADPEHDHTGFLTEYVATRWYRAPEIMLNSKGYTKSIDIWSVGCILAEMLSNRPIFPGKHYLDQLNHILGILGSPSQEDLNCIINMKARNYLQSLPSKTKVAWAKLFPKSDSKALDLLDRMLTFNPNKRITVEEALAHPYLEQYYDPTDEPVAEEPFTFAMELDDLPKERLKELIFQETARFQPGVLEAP
recordedEndpoint: IC50 (µM)
Expressed in µM, but write only the number.

Record excerpt, results attached:
Cc1c(C)c2c(c(C)c1O)CCC(C)(CN1CCN(c3cc(N4CCCC4)nc(N4CCCC4)n3)CC1)O2 (stereo not drawn) :: 4.96
CC(=O)[C@@]1(O)CC[C@H]2[C@@H]3CCC4=CC(=O)CC[C@]4(C)[C@H]3CC[C@@]21C [HYDROXYPROGESTERONE] :: 3.16

Lab note: next molecule to report on.
Reported IC50 for Oc1c(Cl)cc(Cl)c(Cl)c1Cc1c(O)c(Cl)cc(Cl)c1Cl [HEXACHLOROPHENE] was 2.48

====

biological target: Receptor tyrosine-protein kinase erbB-2 (Homo sapiens); test: biochemical; type: cell-based, Insect cells; settings: read-out: IC50; note: in other assays of this panel Not Active means under 50% inhibition at 10 µM;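 note: inhibition of HER2 kinase enzyme activity, measured with Poly(Glu:Tyr) as the phosphorylation substrate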
Sequence (P04626 whole entry): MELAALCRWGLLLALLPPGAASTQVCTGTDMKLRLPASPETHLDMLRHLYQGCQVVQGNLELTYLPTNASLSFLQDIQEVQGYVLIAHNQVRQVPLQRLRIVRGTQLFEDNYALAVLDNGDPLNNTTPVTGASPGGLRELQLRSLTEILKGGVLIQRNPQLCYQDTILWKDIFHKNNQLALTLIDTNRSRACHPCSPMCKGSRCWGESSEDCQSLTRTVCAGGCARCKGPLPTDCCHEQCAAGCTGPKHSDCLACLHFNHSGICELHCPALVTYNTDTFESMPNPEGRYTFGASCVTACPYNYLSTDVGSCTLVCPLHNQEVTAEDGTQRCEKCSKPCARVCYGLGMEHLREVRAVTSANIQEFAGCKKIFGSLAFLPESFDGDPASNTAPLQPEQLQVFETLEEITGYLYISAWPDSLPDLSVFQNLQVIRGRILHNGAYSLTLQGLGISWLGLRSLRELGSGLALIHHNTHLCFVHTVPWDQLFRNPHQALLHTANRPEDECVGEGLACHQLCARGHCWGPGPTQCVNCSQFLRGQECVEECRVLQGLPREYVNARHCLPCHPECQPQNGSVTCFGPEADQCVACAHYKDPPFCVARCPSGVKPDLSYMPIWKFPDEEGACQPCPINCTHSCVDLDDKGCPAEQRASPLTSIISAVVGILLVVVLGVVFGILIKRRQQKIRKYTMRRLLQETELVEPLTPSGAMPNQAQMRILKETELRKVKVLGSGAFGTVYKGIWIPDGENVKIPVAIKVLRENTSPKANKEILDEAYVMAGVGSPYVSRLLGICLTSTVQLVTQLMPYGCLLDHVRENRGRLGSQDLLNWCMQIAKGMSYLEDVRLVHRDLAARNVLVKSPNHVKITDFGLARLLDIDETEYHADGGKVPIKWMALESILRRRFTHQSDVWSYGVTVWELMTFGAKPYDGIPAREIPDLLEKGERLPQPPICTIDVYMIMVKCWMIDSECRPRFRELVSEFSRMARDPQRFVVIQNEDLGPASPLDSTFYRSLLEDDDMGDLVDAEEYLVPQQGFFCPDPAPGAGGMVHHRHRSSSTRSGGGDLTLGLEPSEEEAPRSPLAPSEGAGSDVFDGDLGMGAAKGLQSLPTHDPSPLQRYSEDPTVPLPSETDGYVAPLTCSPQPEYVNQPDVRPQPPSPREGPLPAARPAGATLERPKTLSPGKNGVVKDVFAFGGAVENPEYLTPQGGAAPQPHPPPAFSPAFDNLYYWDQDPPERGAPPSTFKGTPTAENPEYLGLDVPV
Overview of reported IC50 across a group of compounds:
Expressed in µM, but write only the number.

Oc1c(Cl)cc(Cl)c(Cl)c1Cc1c(O)c(Cl)cc(Cl)c1Cl :: 3.32
O=C(Nc1ccc(Br)cc1)c1cc(Br)cc(Br)c1O :: 5.97
CCN(CC)CCOc1ccc(/C(=C(/Cl)c2ccccc2)c2ccccc2)cc1 :: 1.67
CC(=O)O[C@H]1C(=O)[C@@]2(C)[C@H]([C@H](OC(=O)c3ccccc3)[C@]3(O)C[C@H](OC(=O)[C@H](O)[C@@H](NC(=O)c4ccccc4)c4ccccc4)C(C)=C1C3(C)C)[C@]1(OC(C)=O)CO[C@@H]1C[C@@H]2O :: 11.1

Reported IC50 for Clc1ccc(COC(Cn2ccnc2)c2ccc(Cl)cc2Cl)cc1 (stereo not given) was 13.9

====

target: Neuropeptide Y receptor type 2 (Homo sapiens); format: cell membranes, KAN-TS, Membrane; settings: read-out: IC50; note: in other assays of this panel Not Active means under 50% inhibition at 10 µM
Sequence (P49146 whole entry): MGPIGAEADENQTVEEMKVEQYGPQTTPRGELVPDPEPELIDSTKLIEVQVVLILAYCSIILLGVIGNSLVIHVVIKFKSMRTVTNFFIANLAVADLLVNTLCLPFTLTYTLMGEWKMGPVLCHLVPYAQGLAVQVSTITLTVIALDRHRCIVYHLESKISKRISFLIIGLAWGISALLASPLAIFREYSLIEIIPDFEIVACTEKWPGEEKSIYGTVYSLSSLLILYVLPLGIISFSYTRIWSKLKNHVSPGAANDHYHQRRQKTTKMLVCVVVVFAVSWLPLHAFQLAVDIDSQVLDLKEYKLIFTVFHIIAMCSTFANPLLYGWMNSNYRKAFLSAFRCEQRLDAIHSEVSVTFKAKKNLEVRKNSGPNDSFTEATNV
recordedEndpoint: pIC50
API: returns pIC50 as number; meaning -log10 of concentration in mol/L.

Reported pIC50 for Clc1ccc(COC(Cn2ccnc2)c2ccc(Cl)cc2Cl)cc1 (stereo unspecified) was 4.70
